test system: 786-0 renal; experiment: NCI tumour cell line growth inhibition, 48 h
measured_endpoint: TGI

Record excerpt, results attached:
[
  {
    "compound": "CCOC(=O)CNC(=O)C(CSCC1C(=O)Nc2ccccc21)NC(=O)CCC(N)C(=O)OCC (stereo not given)",
    "data_value": "4.28 µM"
  },
  {
    "compound": "Cc1ccc(O)c(-c2cc(-c3cccc(Br)c3)c(C#N)c(N)n2)c1",
    "data_value": "> 100 µM"
  },
  {
    "compound": "Cc1cc(=O)[nH]c(-n2[nH]c3c(c2=O)CCCC3)n1",
    "data_value": "> 100 µM"
  },
  {
    "compound": "Cn1cc(-c2csc(-c3c[nH]c4ccc(F)cc34)n2)c2cccnc21",
    "data_value": "> 68.4 µM"
  },
  {
    "compound": "O=C1CC(=O)c2c(N3CCCC3)sc(N3CCCC3)c21",
    "data_value": "> 100 µM"
  },
  {
    "compound": "CN(C)c1ccc(C2C(Cl)C(=O)N2NC(=O)c2c(Cl)c(Cl)c(Cl)c(Cl)c2-c2nc3ccccc3[nH]2)cc1 (stereo not given)",
    "data_value": "6.2 µM"
  }
]

(Q) Note down TGI recorded for C(=N\c1cc2cc(Sc3ccccc3)ccc2[nH]1)/c1ccccc1
(A) > 12.5 µM

(Q) Note down TGI recorded for N#CC1(C#N)C(c2ccc(C3C(C#N)(C#N)C3(C#N)C#N)cc2)C1(C#N)C#N
(A) > 100 µM

(Q) Note down TGI recorded for CN(C)/C=N/S(=O)(=O)c1nn2c(C=O)c(-c3ccccc3)nc2s1
(A) 21.3 µM

(Q) Note down TGI recorded for COc1ccccc1N=NC(C(=O)c1ccccc1)C(=O)c1ccccc1
(A) > 100 µM

###

tested on: 786-0 renal; experiment: NCI tumour cell line growth inhibition, 48 h
measured_endpoint: TGI

[
  {
    "molecule": "Nc1ccc(Sc2nnc(N)s2)cc1",
    "TGI": "> 100 µM"
  },
  {
    "molecule": "CC1(C)C(=NNC(=S)NN)C(C)(C)C1=NNC(=S)NN",
    "TGI": "> 100 µM"
  },
  {
    "molecule": "COC(=O)CCCC(=O)C1=Nc2ccccc2CN(c2ccc(Cl)cc2)N1",
    "TGI": "> 100 µM"
  },
  {
    "molecule": "CCCCc1ccc(NS(=O)(=O)c2cc3c4c(c2)CCN4C(=O)CC3)cc1",
    "TGI": "74.6 µM"
  }
]

(Q) Note down TGI recorded for COC(=O)C1=CC(=O)OC1(OO)c1ccc(Br)cc1 (stereo unspecified)
(A) > 100 µM

(Q) Note down TGI recorded for Cc1cccc(C)c1NC(=O)CCC(=O)NNc1nnc(C)n1N
(A) > 100 µM

(Q) Note down TGI recorded for CC(C)(C)[Si](C)(C)OC1(CCc2ccccc2OS(=O)(=O)C(F)(F)F)CCCC=C1COCc1ccccc1 (stereo unspecified)
(A) > 100 µM

(Q) Note down TGI recorded for O=C1c2c(O)ccc(O)c2C(=O)c2c(NCCNC(=O)C(O)C(O)C(O)C(O)CO)ccc(NCCNC(=O)C(O)C(O)C(O)C(O)CO)c21 (stereo unspecified)
(A) 0.0531 µM

(Q) Note down TGI recorded for COc1cc(Nc2ncc3c(C)nc(-c4cccc(C(F)(F)F)c4)n3n2)cc(OC)c1OC
(A) 7.92 µM

(Q) Note down TGI recorded for CC(c1ccccc1)N1C(=O)CSC1=S (stereo unspecified)
(A) > 100 µM

(Q) Note down TGI recorded for O=C(O)Cc1cc(F)ccc1C(=O)O
(A) > 100 µM

###

system: OVCAR-5 ovarian; experiment: NCI tumour cell line growth inhibition, 48 h
measured_endpoint: TGI

[
  {
    "compound": "COc1cccc(-c2nc(-c3cnccn3)n(C3OC(CO)C(O)C3O)n2)c1 (stereo unspecified)",
    "TGI": "> 100 µM"
  },
  {
    "compound": "COc1cc(Nc2ncc3c(C)nc(-c4cccc(C(F)(F)F)c4)n3n2)cc(OC)c1OC",
    "TGI": "7.5 µM"
  },
  {
    "compound": "CCOC(=O)CCC(C(=O)OCC)n1nc2ccc(Nc3c(C)[n+]([O-])c4ccc(Cl)cc4[n+]3[O-])cc2n1 (stereo unspecified)",
    "TGI": "> 100 µM"
  }
]

(Q) Note down TGI recorded for COc1cc2c3c(c1Oc1nnnn1-c1ccccc1)-c1c(ccc4c1OCO4)C[C@H]3N(C)CC2
(A) > 100 µM

(Q) Note down TGI recorded for COc1cccc2c1C(=O)c1c(O)c3c(c(O)c1C2=O)C[C@@](O)(C(=O)CO)C[C@@H]3OC1CC(N(C)C)C(O)C(C)O1 (stereo partly specified)
(A) 0.352 µM

(Q) Note down TGI recorded for CCC1(O)C(=O)OCc2c1cc1n(c2=O)Cc2cc3cc(OC)c(OC)cc3nc2-1 (stereo unspecified)
(A) > 100 µM

(Q) Note down TGI recorded for O=C1C(Cl)=C(Cl)C(Cl)(Cl)C(Cl)C1(Cl)Cl (stereo unspecified)
(A) 58 µM

(Q) Note down TGI recorded for O=C(O)Cc1cc(F)ccc1C(=O)O
(A) > 100 µM

(Q) Note down TGI recorded for Cc1cc(=O)[nH]c(-n2[nH]c3c(c2=O)CCCC3)n1
(A) > 100 µM

###

Recorded TGI, one value per entry.
test system: M14 melanoma; assay: NCI tumour cell line growth inhibition, 48 h
*1 amine or outer side, *2 acyl side, *3 side chain or, on linkers, in order; H or OH if unused. Where a SMILES comes first, the peptide text is derived from it. [ ]: non-standard residue; d: D form. The star is where a group is joined. ξ: configuration not given here. X53 = CC(C)C[C@H](N[*:1])C1=N[C@H](C(=O)[*:2])CS1; Ile(3ξ) = CCC(C)[C@H](N)C(=O)O; Allyl(1,1-Me2) = C=CC(C)(C)*

[
  {
    "compound": "CNc1ccccc1S(=O)(=O)c1ccccc1[N+](=O)[O-]",
    "assay_system": "M14 melanoma",
    "data_value": "> 100 µM"
  }
]

(Q) Note down TGI recorded for COc1cc(C=C2c3ccccc3C(=O)c3ccccc32)ccc1OCCCCOc1cc2c(cc1OC)C(=O)N1CCCC1C=N2 (stereo not drawn)
(A) 1.47 µM

(Q) Note down TGI recorded for COc1ccc(NC2C(=O)C3(C)CCC2C3(C)C)cc1 (stereo not drawn)
(A) > 100 µM

(Q) Note down TGI recorded for C=CC(C)(C)OC[C@@H]1NC(=O)CNC(=O)[C@@H]2CCCN2C(=O)[C@H](C(C)CC)NC(=O)[C@@H]2CSC(=N2)[C@H](CC(C)C)NC1=O (stereo partly drawn) (cyclo(GS(Allyl(1,1-Me2))[X53][Ile(3ξ)]P))
(A) > 100 µM

(Q) Note down TGI recorded for COC1=C(C)C(=O)N2[C@@H]1[C@H](c1ccccc1)OC21C=CC(=O)C=C1
(A) 12.5 µM

(Q) Note down TGI recorded for CCOC(=O)c1csc(NC(=O)CN2CCN(c3ccccc3)CC2)n1
(A) > 100 µM

(Q) Note down TGI recorded for CCCOc1ccc2sc(NC(=O)c3cc([N+](=O)[O-])cc([N+](=O)[O-])c3)nc2c1
(A) > 100 µM

(Q) Note down TGI recorded for CC(=O)O[C@H]1CC[C@@]2(C)C(=CC[C@@H]3C2CC[C@]2(C)Nc4c(cnn4-c4ccccc4)CC32)C1 (stereo partly drawn)
(A) > 100 µM

###

system: SF-268 CNS; assay: NCI tumour cell line growth inhibition, 48 h
Recorded TGI, one value per entry.
Give the value, in units of µM, as a plain number.

[
  {
    "smiles_str": "O=C(c1ccc(Oc2ccccc2)cc1Cl)c1c[nH]c2ncnc(N[C@@H]3CC[C@@H](CO)OC3)c12",
    "assay_system": "SF-268 CNS",
    "TGI / µM": 16.3
  }
]

Turning now to a further molecule:
(Q) Note down TGI recorded for CC(C)(C)c1ccc2c(c1)OP1(Oc3cccc4cccnc34)(O2)Oc2ccc(C(C)(C)C)cc2O1
(A) 26.7

###

system: EKVX NSCLC; test: NCI tumour cell line growth inhibition, 48 h
*1 amine or outer side, *2 acyl side, *3 side chain or, on linkers, in order; H or OH if unused. Where a SMILES comes first, the peptide text is derived from it. [ ]: non-standard residue; d: D form. The star is where a group is joined. ξ: configuration not given here. X53 = CC(C)C[C@H](N[*:1])C1=N[C@H](C(=O)[*:2])CS1; Ile(3ξ) = CCC(C)[C@H](N)C(=O)O; Allyl(1,1-Me2) = C=CC(C)(C)*
measured_endpoint: TGI

Record excerpt, results attached:
[
  {
    "compound": "O=C(O)Cc1cc(F)ccc1C(=O)O",
    "data_value": "> 100 µM"
  },
  {
    "compound": "[N-]=[N+]=CC(=O)OC1CCOCC1",
    "data_value": "> 100 µM"
  },
  {
    "compound": "OCc1cc2c([nH]c3ccccc32)c(C(O)CO)n1 (stereo not given)",
    "data_value": "> 100 µM"
  },
  {
    "compound": "CN(C)CCNc1c2c(c(NCCN(C)C)c3c(CN(C)C)c[nH]c13)C(=O)c1ccccc1C2=O",
    "data_value": "17.3 µM"
  },
  {
    "compound": "O=c1[nH]cnc2c1ncn2C1CCC(CO)O1 (stereo not given)",
    "data_value": "> 1000 µM"
  },
  {
    "compound": "CCOC(=O)/C=C1/Oc2ccccc2C1(C)O (stereo not given)",
    "data_value": "> 100 µM"
  }
]

(Q) Note down TGI recorded for CN(C)c1nc2nonc2nc1Nc1ccccc1
(A) > 100 µM

(Q) Note down TGI recorded for CCCCCCCCCCCCC(=O)CCCCC(=O)O
(A) > 100 µM

(Q) Note down TGI recorded for CCOC(=O)c1c(NNc2ccccc2)nc2ccccc2c1-c1ccccc1
(A) > 100 µM

(Q) Note down TGI recorded for CN(C)c1ccc(C2C(Cl)C(=O)N2NC(=O)c2c(Cl)c(Cl)c(Cl)c(Cl)c2-c2nc3ccccc3[nH]2)cc1 (stereo not given)
(A) 67.4 µM

(Q) Note down TGI recorded for CC(C)NC(=O)OCc1c(COC(=O)NC(C)C)c(-c2cc[n+](COC(=O)CC(C)(C)C)cc2)n2c1CCC2
(A) > 100 µM

(Q) Note down TGI recorded for O=C1c2ccc3c4ccc5c6c(ccc(c7ccc(c2c37)C(=O)N1CCN1CCCCC1)c64)C(=O)N(CCN1CCCCC1)C5=O
(A) > 100 µM

(Q) Note down TGI recorded for C=CC(C)(C)OC[C@@H]1NC(=O)CNC(=O)[C@@H]2CCCN2C(=O)[C@H](C(C)CC)NC(=O)[C@@H]2CSC(=N2)[C@H](CC(C)C)NC1=O (stereo not given in full) (cyclo(GS(Allyl(1,1-Me2))[X53][Ile(3ξ)]P))
(A) > 100 µM

(Q) Note down TGI recorded for COc1cccc(-c2nnc3c(-c4ccccc4)nc4ccccc4n23)c1
(A) > 100 µM
